B1: OR4K15 (parent)
chain: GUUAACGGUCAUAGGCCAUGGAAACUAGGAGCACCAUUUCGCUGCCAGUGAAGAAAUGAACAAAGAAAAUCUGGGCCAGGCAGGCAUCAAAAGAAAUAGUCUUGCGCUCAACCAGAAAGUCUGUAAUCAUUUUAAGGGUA

Variants of: B1
assay.notes: self-cleavage, relative activity (ratio to wild type); higher = more cleavage; in vitro, sequencing; the parent is a self-cleaving ribozyme
# if value of self-cleavage reaches 0.7, tag 1 (yes); if it stays below, tag 0 (no)

# variant.descriptor, category
rows = [
    ("A13G A89G", "1 (yes)"),
    ("A96C A111G", "0 (no)"),
    ("C34A", "1 (yes)"),
    ("U100C A129G", "1 (yes)"),
    ("A62C U132C", "1 (yes)"),
    ("A18G A47G", "1 (yes)"),
    ("A116U A129U", "0 (no)"),
    ("G106A U122A", "0 (no)"),
    ("A66G A90C", "0 (no)"),
    ("A134G A140G", "0 (no)"),
    ("A18G A134G", "1 (yes)"),
    ("U38C C121U", "1 (yes)"),
    ("C16U U70C", "1 (yes)"),
    ("A22G A54C", "1 (yes)"),
    ("A68G A96G", "1 (yes)"),
    ("A68G A134U", "1 (yes)"),
    ("U2G U39A", "1 (yes)"),
    ("G21A U122G", "1 (yes)"),
    ("A62G A86G", "1 (yes)"),
    ("C16G A78U", "0 (no)"),
    ("C109A A118C", "0 (no)"),
    ("U131C G137A", "0 (no)"),
    ("A18U U37G", "1 (yes)"),
    ("U37C U103A", "0 (no)"),
    ("A116U A134U", "0 (no)"),
    ("A52G A117C", "0 (no)"),
    ("U57C A114U", "0 (no)"),
    ("U49G U139A", "1 (yes)"),
    ("A116G A126U", "1 (yes)"),
    ("A51U U139A", "1 (yes)"),
    ("A52G C128A", "0 (no)"),
    ("G44A U97C", "1 (yes)"),
    ("A13U U122C", "0 (no)"),
]
